Hey, just so you know, these numbers are from patent US20240228481A1.

# measured-target: QR2 (Homo sapiens, UniProt P16083)
# Sequence (P16083 whole entry): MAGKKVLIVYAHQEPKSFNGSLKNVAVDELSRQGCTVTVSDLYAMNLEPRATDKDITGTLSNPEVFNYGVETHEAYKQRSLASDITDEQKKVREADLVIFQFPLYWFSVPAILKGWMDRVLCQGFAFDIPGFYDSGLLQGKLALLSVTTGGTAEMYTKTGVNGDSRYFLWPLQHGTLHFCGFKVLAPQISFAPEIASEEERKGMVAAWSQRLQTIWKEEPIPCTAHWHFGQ
# test: QR2 enzymatic activity assay (menadione/BNAH), fluorescence readout
# Assay type: biochemical
# Set-up: purchased Sigma-Aldrich
reported-endpoint: IC50 (µM)

(A) Cc1ccc(-c2nnc(-c3ccccc3)o2)cc1S(=O)(=O)N1CCCCCC1
(B) CCOC(=O)c1c(S(=O)(=O)N(CCC(C)C)Cc2ccco2)c(C)n(C)c1C
Q) Of A and B , which one carries the higher reported IC50? Refer to your chosen entry by its label in the reply.
A) B
